- Test system: Escherichia coli
- assay details: Antibacterial activity against wild-type Escherichia coli AG100 harboring marR mutant gene at 37 degC by Etest method
- Type: functional
outcome measure: MIC (µg/mL)
Use µg/mL as the unit, but write only the number.

CC(=O)OCC1=C(C(=O)O)N2C(=O)[C@@H](NC(=O)Cc3cccs3)[C@H]2SC1 = 9.3
CC1(C)S[C@@H]2[C@H](NC(=O)[C@H](N)c3ccccc3)C(=O)N2[C@H]1C(=O)O = 3
CN(C)[C@@H]1C(O)=C(C(N)=O)C(=O)[C@@]2(O)C(O)=C3C(=O)c4c(O)cccc4[C@@](C)(O)[C@H]3C[C@@H]12 = 4
CO[C@@]1(NC(=O)Cc2cccs2)C(=O)N2C(C(=O)O)=C(COC(N)=O)CS[C@@H]21 = 6

Note to self: MIC recorded for "CCn1cc(C(=O)O)c(=O)c2ccc(C)nc21" was 10.7

Sure, the documented MIC for "C[C@H]1c2cccc(O)c2C(=O)C2=C(O)[C@]3(O)C(=O)C(C(N)=O)=C(O)[C@@H](N(C)C)[C@@H]3[C@@H](O)[C@@H]21.O" is 3.3

Entry under test: "O=C(N[C@H](CO)[C@H](O)c1ccc([N+](=O)[O-])cc1)C(Cl)Cl" . Its MIC was 21

* * *

- Tested on: Escherichia coli
- assay details: Antibacterial activity against wild-type Escherichia coli AG100 harboring IS186 insertion in lon3 gene, Tn5 insertion in ycgE gene and plasmid pMPM at 26 degC by Etest method
- Type: functional
outcome measure: MIC

Solved entries (count: 3):
CC(=O)OCC1=C(C(=O)O)N2C(=O)[C@@H](NC(=O)Cc3cccs3)[C@H]2SC1 = 5.3 µg/mL
CCn1cc(C(=O)O)c(=O)c2ccc(C)nc21 = 3 µg/mL
CC1(C)S[C@@H]2[C@H](NC(=O)[C@H](N)c3ccccc3)C(=O)N2[C@H]1C(=O)O = 2.3 µg/mL

// next item, MIC requested
Measured MIC of "CO[C@@]1(NC(=O)Cc2cccs2)C(=O)N2C(C(=O)O)=C(COC(N)=O)CS[C@@H]21" : 6 µg/mL
